The entries below are paired with their reported IC50.
# ASSAY_SYSTEM: Squalene synthase (Rattus norvegicus, UniProt Q02769)
# Sequence (Q02769 whole entry): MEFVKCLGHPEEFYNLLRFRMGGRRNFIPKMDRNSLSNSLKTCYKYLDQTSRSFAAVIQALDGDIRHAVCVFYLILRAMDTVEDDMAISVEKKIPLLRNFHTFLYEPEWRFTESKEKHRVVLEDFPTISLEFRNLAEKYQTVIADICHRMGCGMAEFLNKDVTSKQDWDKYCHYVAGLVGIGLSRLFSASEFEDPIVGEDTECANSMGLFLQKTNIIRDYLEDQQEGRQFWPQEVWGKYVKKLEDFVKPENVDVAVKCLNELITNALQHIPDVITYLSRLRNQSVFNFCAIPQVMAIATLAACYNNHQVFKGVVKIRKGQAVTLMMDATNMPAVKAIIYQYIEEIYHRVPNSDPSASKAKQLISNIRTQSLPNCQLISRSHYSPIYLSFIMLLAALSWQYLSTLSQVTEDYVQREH
Form entry: value (nM) — number only.

Examples from the recorded data:
CC(C)=CCC/C(C)=C/CC/C(C)=C/CC(C(=O)NCCc1ccccc1)P(=O)(O)O (centres undefined) :: 480
CC(C)=CCC/C(C)=C/CC/C(C)=C/CC(CC(=O)N[C@@H](Cc1ccccc1)C(=O)O)P(=O)(O)O (some centres undefined) :: 220
CC(C)=CCC/C(C)=C/CC/C(C)=C/CC(CP(=O)(O)O)C(=O)N[C@@H](Cc1ccccc1)C(=O)O (some centres undefined) :: 90

Next, consider the following compound.
Give recorded IC50 with Squalene synthase (Rattus norvegicus, UniProt Q02769) for the following compound: CC(C)=CCC/C(C)=C/CC/C(C)=C/CC(C(=O)O)C(=O)NC(Cc1ccccc1)C(=O)O (centres undefined)
2400

---

# ASSAY_SYSTEM: Protein farnesyltransferase (Bos taurus, UniProt P29702+P49355)
# ASSAY_TEXT: Inhibition of farnesyl protein transferase from bovine brain
Param label: returns Yes when IC50 < 10000 nM, returns No otherwise, including exact equality.

Some solved entries appear below for comparison.
CC(C)=CCC/C(C)=C/CC/C(C)=C/CC(C(=O)N[C@H](Cc1ccccc1)C(=O)O)P(=O)(O)O (some centres undefined) :: Yes
CC(C)=CCC/C(C)=C/CC/C(C)=C/CC(C(=O)N[C@@H](Cc1ccccc1)C(=O)O)P(=O)(O)O (some centres undefined) :: Yes
CC(C)=CCC/C(C)=C/CC/C(C)=C/CC(C(=O)O)C(=O)NC(Cc1ccccc1)C(=O)O (centres undefined) :: No
CC(C)=CCC/C(C)=C/CC/C(C)=C/C(O)P(=O)(O)O (centres undefined) :: Yes
CC(C)=CCC/C(C)=C/CC/C(C)=C/CC(C(=O)NCCc1ccccc1)P(=O)(O)O (centres undefined) :: No

is_below(IC50, 10000 nM) for CC(C)=CCC/C(C)=C/CC/C(C)=C/CC(CP(=O)(O)O)C(=O)N[C@@H](Cc1ccccc1)C(=O)O (some centres undefined) ?
Yes

Now consider CC(C)=CCC/C(C)=C/CC/C(C)=C/CC(CC(=O)N[C@@H](Cc1ccccc1)C(=O)O)P(=O)(O)O (some centres undefined) and answer again.
Yes

Now consider COC(=O)[C@H](Cc1ccccc1)NC(=O)C(C/C=C(\C)CC/C=C(\C)CCC=C(C)C)P(=O)(O)O (some centres undefined) and answer again.
No
